Source of measurements: PubChem BioAssay (NCI)

tested on: BT-549 breast; assay: NCI tumour cell line growth inhibition, 48 h; in the data active means GI50 below about 0.43 µM; inactive means the rest
Respond using exactly one of the listed classes: label 1 (active), label 0 (inactive)

compound: COc1ccc2c(c1)C(=O)c1c-2c(OCCN(C)C)nc2ccccc12
target entity: BT-549 breast
category: label 0

Record request — test call for COc1ccc(Nc2ccnc(N3CCN(c4ccnc5cc(Cl)ccc45)CC3)n2)cc1 label 0

Given COc1cc2ncc3c(nc4sccn43)c2cc1OC , state the outcome it received in this test. label 0

Short answer needed: outcome of this test for COc1cc(-c2nn(-c3cccc(NC(=O)CCN4CCN(Cc5ccccc5)CC4)c3)cc2-c2ccncc2)ccc1Cl ? label 0

Any idea what this test logged for C=CCc1cc(Nc2c3ccc(Cl)cc3nc3ccc(OC)cc23)cc(CN(CC)CC)c1O ? label 0

# outcome recorded in this test, key = O=C(CN1N=C(c2ccc(F)cc2)CCC1=O)Nc1nc2ccccc2s1 label 0

Short answer needed: outcome of this test for Cc1[nH]c(-c2cc(N)ccc2Cl)c2c1C(=O)CCCC2 ? label 0

Tell me the assay call for COc1cc2cc(Oc3ccc(NC(=O)c4ccc(Cl)c(Cl)c4)cc3)c(C)nc2cc1OC please. label 0

// return assay outcome for Oc1cccc2c1NCCC2 label 0

# outcome recorded in this test, key = Nc1n[nH]c2ccc([C@@H]3Nc4cc5c(cc4[C@H]4C6CCC(C6)[C@@H]34)C(=O)NC5)cc12 (some centres undefined) label 1

Which outcome was assigned to COc1cc(C(=O)Nc2cc(O)c(CC=C(C)C)c(O)c2)cc2c1O[C@]1(C)CC[C@@H](O)C(C)(C)[C@H]1C2 in this test? label 1

Please indicate how the test categorized COc1ccc2c(-c3ccnc(Nc4cccc(OC(F)(F)F)c4)n3)cnn2n1 . label 0

Lab log entry: CCN1C(=O)N(CC)C2C1NN=c1s/c(=C\c3ccc(F)cc3)c(=O)n12 (centres undefined) — outcome as called in the assay? label 0

Which outcome did this test record for the compound C[n+]1c2ccccc2nc2c(N)cc(N)cc21 ? label 0

----------
system: TK-10 renal; assay: NCI tumour cell line growth inhibition, 48 h; in the data active = GI50 below about 0.43 µM; inactive = the rest
Choose one outcome from this list and give only that: active, inactive

molecule: CCOC(=O)c1cc2c(cc1Cl)SC(=Nc1ccccc1)N(S(=O)(=O)c1ccc(Br)s1)S2(=O)=O
category: inactive
--
molecule: C[n+]1c2ccccc2nc2c(N)cc(N)cc21
category: inactive
--
molecule: Cc1ccncc1C(N)=O
category: inactive
--
molecule: Oc1cccc2c1NCCC2
category: inactive
--
molecule: N/C(=N\OC(=O)c1ccccc1)C(Cc1ccccc1)C(=O)NOC(=O)c1ccccc1 (configuration not stated)
category: inactive
--
molecule: C[CH2][Hg][S]c1ccccc1C(=O)O
category: inactive
--
molecule: COc1cc2c(cc1F)C(c1ccccc1Cl)=Nc1c(n[nH]c1C)N2
category: inactive
--
molecule: CSc1ccc(C2=NN(C(C)=O)C(c3ccc(-c4ccc(Cl)cc4)o3)C2)cc1 (configuration not stated)
category: inactive

Record lookup: outcome of this test for CCN1C(=O)N(CC)C2C1NN=c1s/c(=C\c3ccc(F)cc3)c(=O)n12 (configuration not stated) ? inactive

Lab log entry: Oc1c(-c2cc(C(F)(F)F)[nH]n2)cc(Cl)c(OCc2ccc(Cl)cc2)c1-c1ccc(Cl)c(C(F)(F)F)c1 — outcome as called in the assay? inactive

What call does the record list for O=Nc1c(-c2c(O)[nH]c3ncccc23)[nH]c2ccccc12 ? inactive

Name the outcome recorded for C[C@@H]1Cc2cc(O)ccc2[C@H]2CC[C@]3(C)/C(=C/COCCN(C)C)CC[C@H]3[C@H]12 (tested in a mixture with another compound) in the assay. active
